tested on: S pyogenes (stpy); test: Example 3: colony color on chromogenic TSA II with 5% sheep blood (chromogen in medium); assay type: cell-based; settings: stpy 51339; CO2; 21 h
quantity_measured: Colony Color

>>> recorded_result("O=S(=O)([O-])Oc1c[nH]c2ccc(Br)c(Cl)c12.[K+]")
0
>>> recorded_result("CC(=O)N[C@H]1[C@H](Oc2c[nH]c3ccc(Br)c(Cl)c23)O[C@H](CO)[C@H](O)[C@@H]1O")
0

====

test system: E. faecium (enfu); assay: Example 3: colony color on chromogenic TSA II with 5% sheep blood (chromogen in medium); format: cell-based; settings: enfu 49032; CO2; 21 h
quantity_measured: Colony Color

>>> recorded_result("O=S(=O)([O-])Oc1c[nH]c2ccc(Br)c(Cl)c12.[K+] [X-Sulf]")
0
>>> recorded_result("NC1CCCCC1.O=C(O)[C@H]1O[C@@H](Oc2c[nH]c3cc(Cl)ccc23)[C@H](O)[C@@H](O)[C@@H]1O [Sal-Glucuro]")
0

====

tested on: Entercoccus faecalis (enfa); test: Example 3: colony color on chromogenic TSA II with 5% sheep blood (chromogen in medium); type: cell-based; details: enfa 14506; CO2; 21 h
quantity_measured: Colony Color

>>> recorded_result("NC1CCCCC1.O=C(O)[C@H]1O[C@@H](Oc2c[nH]c3cc(Cl)ccc23)[C@H](O)[C@@H](O)[C@@H]1O [Sal-Glucuro]")
0
>>> recorded_result("OC[C@H]1O[C@@H](Oc2c[nH]c3ccc(Br)c(Cl)c23)[C@H](O)[C@@H](O)[C@@H]1O [X-Glucoside, 5-Br-4-Cl-3-indolyl-β-D-glucopyranoside]")
"db"
>>> recorded_result("OC[C@H]1O[C@@H](Oc2c[nH]c3ccc(Br)c(Cl)c23)[C@H](O)[C@@H](O)[C@H]1O [X-Gal]")
"lgb"
>>> recorded_result("O=S(=O)([O-])Oc1c[nH]c2ccc(Br)c(Cl)c12.[K+] [X-Sulf]")
0
>>> recorded_result("O=P(O)(O)Oc1c[nH]c2cc(Cl)c(Br)cc12 [Mag-Phos]")
"lp"
>>> recorded_result("CC(=O)N[C@H]1[C@H](Oc2c[nH]c3ccc(Br)c(Cl)c23)O[C@H](CO)[C@H](O)[C@@H]1O [X-Acglmn]")
"db"

====

test system: Entercoccus faecalis (enfa); experiment: Example 3: colony color on chromogenic TSA II with 5% sheep blood (chromogen in medium); type: cell-based; conditions: enfa 12953; CO2; 21 h
quantity_measured: Colony Color

>>> recorded_result("OC[C@H]1O[C@@H](Oc2c[nH]c3ccc(Br)c(Cl)c23)[C@H](O)[C@@H](O)[C@H]1O")
0
>>> recorded_result("O=S(=O)([O-])Oc1c[nH]c2ccc(Br)c(Cl)c12.[K+]")
0
>>> recorded_result("NC1CCCCC1.O=C(O)[C@H]1O[C@@H](Oc2c[nH]c3cc(Cl)ccc23)[C@H](O)[C@@H](O)[C@@H]1O")
0

====

system: Staphylococcus aureus (stau); test: Example 3: colony color on chromogenic TSA II with 5% sheep blood (chromogen in medium); type: cell-based; conditions: stau 25923; CO2; 24 h
quantity_measured: Colony Color

>>> recorded_result("O=S(=O)([O-])Oc1c[nH]c2ccc(Br)c(Cl)c12.[K+]")
0
>>> recorded_result("OC[C@H]1O[C@@H](Oc2c[nH]c3ccc(Br)c(Cl)c23)[C@H](O)[C@@H](O)[C@@H]1O [X-Glucoside, 5-Br-4-Cl-3-indolyl-β-D-glucopyranoside]")
0
>>> recorded_result("CC(=O)N[C@H]1[C@H](Oc2c[nH]c3ccc(Br)c(Cl)c23)O[C@H](CO)[C@H](O)[C@@H]1O")
0
>>> recorded_result("O=P(O)(O)Oc1c[nH]c2cc(Cl)c(Br)cc12")
"lp"
>>> recorded_result("NC1CCCCC1.O=C(O)[C@H]1O[C@@H](Oc2c[nH]c3cc(Cl)ccc23)[C@H](O)[C@@H](O)[C@@H]1O")
0
>>> recorded_result("OC[C@H]1O[C@@H](Oc2c[nH]c3ccc(Br)c(Cl)c23)[C@H](O)[C@@H](O)[C@H]1O")
0

====

test system: Klebsiella pneumoniae (klpn); test: Example 3: colony color on chromogenic TSA II with 5% sheep blood (chromogen in medium); format: cell-based; conditions: klpn 33606; CO2; 21 h
quantity_measured: Colony Color

>>> recorded_result("O=P(O)(O)Oc1c[nH]c2cc(Cl)c(Br)cc12")
0
>>> recorded_result("CC(=O)N[C@H]1[C@H](Oc2c[nH]c3ccc(Br)c(Cl)c23)O[C@H](CO)[C@H](O)[C@@H]1O")
0
>>> recorded_result("NC1CCCCC1.O=C(O)[C@H]1O[C@@H](Oc2c[nH]c3cc(Cl)ccc23)[C@H](O)[C@@H](O)[C@@H]1O")
0
>>> recorded_result("OC[C@H]1O[C@@H](Oc2c[nH]c3ccc(Br)c(Cl)c23)[C@H](O)[C@@H](O)[C@@H]1O [X-Glucoside, 5-Br-4-Cl-3-indolyl-β-D-glucopyranoside]")
"gb"
>>> recorded_result("O=S(=O)([O-])Oc1c[nH]c2ccc(Br)c(Cl)c12.[K+]")
0
>>> recorded_result("OC[C@H]1O[C@@H](Oc2c[nH]c3ccc(Br)c(Cl)c23)[C@H](O)[C@@H](O)[C@H]1O")
"gb"

====

system: Klebsiella pneumoniae (klpn); experiment: Example 3: colony color on chromogenic TSA II with 5% sheep blood (chromogen in medium); assay type: cell-based; details: chromogenic TSA II with 5% Sheep Blood, 0.1 g/l; 3 strains tested
Measured Colony Color (Summary), listed per entry.
quantity_measured: Colony Color (Summary)

>>> recorded_result("CC(=O)N[C@H]1[C@H](Oc2c[nH]c3ccc(Br)c(Cl)c23)O[C@H](CO)[C@H](O)[C@@H]1O [X-Acglmn]")
0
>>> recorded_result("O=C(O)[C@H]1O[C@@H](Oc2c[nH]c3ccc(Br)c(Cl)c23)[C@H](O)[C@@H](O)[C@@H]1O [X-Glucuro, X-Glucuronide]")
0
>>> recorded_result("O=S(=O)([O-])Oc1c[nH]c2ccc(Br)c(Cl)c12.[K+] [X-Sulf]")
0

====

test system: Staphylococcus aureus (stau); test: Example 3: colony color on chromogenic TSA II with 5% sheep blood (chromogen in medium); format: cell-based; conditions: stau 1008; CO2; 21 h
quantity_measured: Colony Color

>>> recorded_result("O=S(=O)([O-])Oc1c[nH]c2ccc(Br)c(Cl)c12.[K+] [X-Sulf]")
0
>>> recorded_result("OC[C@H]1O[C@@H](Oc2c[nH]c3ccc(Br)c(Cl)c23)[C@H](O)[C@@H](O)[C@@H]1O [X-Glucoside, 5-Br-4-Cl-3-indolyl-β-D-glucopyranoside]")
0
>>> recorded_result("CC(=O)N[C@H]1[C@H](Oc2c[nH]c3ccc(Br)c(Cl)c23)O[C@H](CO)[C@H](O)[C@@H]1O [X-Acglmn]")
0
>>> recorded_result("OC[C@H]1O[C@@H](Oc2c[nH]c3ccc(Br)c(Cl)c23)[C@H](O)[C@@H](O)[C@H]1O [X-Gal]")
0
>>> recorded_result("O=P(O)(O)Oc1c[nH]c2cc(Cl)c(Br)cc12 [Mag-Phos]")
"vlp"
>>> recorded_result("NC1CCCCC1.O=C(O)[C@H]1O[C@@H](Oc2c[nH]c3cc(Cl)ccc23)[C@H](O)[C@@H](O)[C@@H]1O [Sal-Glucuro]")
0

====

test system: Entercoccus faecalis (enfa); assay: Example 3: colony color on chromogenic TSA II with 5% sheep blood (chromogen in medium); type: cell-based; details: enfa 10741; CO2; 21 h
quantity_measured: Colony Color

>>> recorded_result("NC1CCCCC1.O=C(O)[C@H]1O[C@@H](Oc2c[nH]c3cc(Cl)ccc23)[C@H](O)[C@@H](O)[C@@H]1O [Sal-Glucuro]")
0
>>> recorded_result("O=S(=O)([O-])Oc1c[nH]c2ccc(Br)c(Cl)c12.[K+] [X-Sulf]")
0
>>> recorded_result("OC[C@H]1O[C@@H](Oc2c[nH]c3ccc(Br)c(Cl)c23)[C@H](O)[C@@H](O)[C@H]1O [X-Gal]")
"gb"
>>> recorded_result("O=P(O)(O)Oc1c[nH]c2cc(Cl)c(Br)cc12 [Mag-Phos]")
"lp"
>>> recorded_result("OC[C@H]1O[C@@H](Oc2c[nH]c3ccc(Br)c(Cl)c23)[C@H](O)[C@@H](O)[C@@H]1O [X-Glucoside, 5-Br-4-Cl-3-indolyl-β-D-glucopyranoside]")
"db"
>>> recorded_result("CC(=O)N[C@H]1[C@H](Oc2c[nH]c3ccc(Br)c(Cl)c23)O[C@H](CO)[C@H](O)[C@@H]1O [X-Acglmn]")
"db"

====

tested on: Staphylococcus Coag Neg (step); assay: Example 3: colony color on chromogenic TSA II with 5% sheep blood (chromogen in medium); format: cell-based; details: step cdc1; CO2; 21 h
quantity_measured: Colony Color

>>> recorded_result("OC[C@H]1O[C@@H](Oc2c[nH]c3ccc(Br)c(Cl)c23)[C@H](O)[C@@H](O)[C@@H]1O [X-Glucoside, 5-Br-4-Cl-3-indolyl-β-D-glucopyranoside]")
0
>>> recorded_result("NC1CCCCC1.O=C(O)[C@H]1O[C@@H](Oc2c[nH]c3cc(Cl)ccc23)[C@H](O)[C@@H](O)[C@@H]1O")
0
>>> recorded_result("O=S(=O)([O-])Oc1c[nH]c2ccc(Br)c(Cl)c12.[K+]")
0
>>> recorded_result("OC[C@H]1O[C@@H](Oc2c[nH]c3ccc(Br)c(Cl)c23)[C@H](O)[C@@H](O)[C@H]1O")
0
>>> recorded_result("CC(=O)N[C@H]1[C@H](Oc2c[nH]c3ccc(Br)c(Cl)c23)O[C@H](CO)[C@H](O)[C@@H]1O")
0
>>> recorded_result("O=P(O)(O)Oc1c[nH]c2cc(Cl)c(Br)cc12")
"lp"
